Target: Transient receptor potential cation channel subfamily M member 8 (Homo sapiens, UniProt Q7Z2W7)
Assay: Inhibition of human TRPM8 (unknown origin) expressed in HEK293 cells assessed as inhibition of WS12-induced Ca2+ elevation by FLIPR assay
Assay type: cell-based
Each record gets a class by Kb: low group: < 100 nM; middle group: ≥ 100 nM and < 800 nM; high group: ≥ 800 nM

Solved cases below.
CN(C(=O)c1ccccc1OCc1ccccc1)[C@@H]1CCNC1 ... high group
CCN(C(=O)c1ccccc1OCc1ccccc1)C1CCCNC1 (stereo unspecified) ... high group
CCN(C(=O)c1ccccc1COc1ccccc1)[C@@H]1CCC[C@H](N)C1 (racemic) ... middle group
CCN(C(=O)c1ccccc1OCc1ccc(Cl)cc1)[C@@H]1CCC[C@H](N)C1 ... low group
CCN(C(=O)c1ccccc1OCc1cccc(Cl)c1)C1CCCC(N)C1 (racemic) ... low group
CCN(C(=O)c1ccccc1OCc1ccccc1)C1CCCC(N)C1 (racemic) ... low group
NN1CCN(C(=O)c2ccccc2OCc2ccccc2)CC1 ... high group
NCCN(Cc1cccs1)C(=O)c1ccccc1OCc1ccccc1 ... middle group

q: Into which bin does this compound go? CCN(C(=O)c1ccncc1OCc1ccccc1)[C@@H]1CCC[C@H](N)C1 (racemic)
a: high group

q: Into which bin does this compound go? CCN(C(=O)c1cnccc1OCc1ccccc1)[C@@H]1CCC[C@H](N)C1 (racemic)
a: high group

q: Into which bin does this compound go? CCN(C(=O)c1ccccc1OCc1ccccc1)[C@H]1CCC[C@@H](N)C1
a: high group

q: Into which bin does this compound go? CCN(C(=O)c1ccccc1Cc1ccccc1)[C@@H]1CCC[C@H](N)C1 (racemic)
a: high group

q: Into which bin does this compound go? CCN(C(=O)c1ccccc1OCc1ccccc1)[C@@H]1CCC[C@H](NC(C)=O)C1 (racemic)
a: high group

q: Into which bin does this compound go? COc1cc(CN(CCN)C(=O)c2cccs2)ccc1OCc1ccccc1
a: low group

q: Into which bin does this compound go? CCN(C(=O)c1ccccc1OCc1ccc(C#N)cc1)C1CCCC(N)C1 (racemic)
a: high group

====

Molecular target: Transient receptor potential cation channel subfamily M member 8 (Homo sapiens, UniProt Q7Z2W7)
Experiment: Inhibition of human TRPM8 (unknown origin) expressed in HEK293 cells assessed as inhibition of WS12-induced Ca2+ elevation by FLIPR assay
Reported IC50 values are given for each entry in this list.

CCN(C(=O)c1ccccc1OCc1ccccc1C#N)C1CCCC(N)C1 (racemic) ... 1850 nM
CCN(C(=O)c1ccccc1OCc1ccc(Cl)cc1)[C@H]1CCC[C@@H](N)C1 ... 254 nM

Notebook: CCCN(C(=O)c1ccccc1OCc1ccccc1)[C@@H]1CCC[C@H](N)C1 (racemic) , IC50 read as 1230 nM

Notebook: CN(C(=O)c1ccccc1OCc1ccccc1)[C@@H]1CCC[C@H](N)C1 (racemic) , IC50 read as 3150 nM

Notebook: CCN(C(=O)c1ccccc1OCc1ccccc1C)[C@H]1CCC[C@@H](N)C1 , IC50 read as 291 nM

Notebook: CCN(C(=O)c1ccccc1OCc1ccccc1)[C@@H]1CCC[C@H](N)C1 , IC50 read as 76.2 nM

Notebook: CCN(C(=O)c1ccccc1OCc1ccc(Cl)cc1)[C@@H]1CCC[C@H](N)C1 , IC50 read as 19.3 nM

Notebook: N[C@H]1CCC[C@@H](N(CC2CC2)C(=O)c2ccccc2OCc2ccccc2)C1 (racemic) , IC50 read as 593 nM

====

Reported microsomal CLint values are given for each entry in this list.
Assay: Apparent intrinsic clearance in human liver microsomes
Assay type: ADME, Microsome
Settings: read-out: CLH(app)

CCN(C(=O)c1ccccc1OCc1ccccc1)[C@@H]1CCC[C@H](N)C1 ... < 8 µL/min/mg
CCN(C(=O)c1ccccc1OCc1ccccc1F)[C@@H]1CCC[C@H](N)C1 ... < 8 µL/min/mg
CCN(C(=O)c1ccccc1OCc1ccc(Cl)cc1)[C@@H]1CCC[C@H](N)C1 ... < 10 µL/min/mg

Notebook: NCCN(Cc1cccs1)C(=O)c1ccccc1OCc1ccccc1 , microsomal CLint read as 149 µL/min/mg

====

Reported Kb values are given for each entry in this list.
Biological target: Transient receptor potential cation channel subfamily M member 8 (Homo sapiens, UniProt Q7Z2W7)
Assay: Inhibition of human TRPM8 (unknown origin) expressed in HEK293 cells assessed as inhibition of WS12-induced Ca2+ elevation by FLIPR assay
Assay type: cell-based
State the answer as a number, implicitly in nM.

Example molecules with recorded Kb:
N[C@H]1CCC[C@@H](N(CC2CC2)C(=O)c2ccccc2OCc2ccccc2)C1 (racemic) ... 665
CCN(C(=O)c1ccccc1OCc1ccccc1Cl)[C@@H]1CCC[C@H](N)C1 ... 13
CCN(C(=O)c1ccccc1OCc1ccccc1C#N)C1CCCC(N)C1 (racemic) ... 1250

Notebook: CCN(C(=O)c1ccccc1OCc1ccccc1)[C@@H]1CC[C@@H](N)C1 (racemic) , Kb read as 2600

Notebook: CN(C(=O)c1ccccc1OCc1ccccc1)[C@@H]1CCC[C@H](N)C1 (racemic) , Kb read as 3670

====

Molecular target: UniProt Q7Z2W7
Experiment: Inhibition of human TRPM8 (unknown origin) expressed in HEK293 cells assessed as inhibition of WS12-induced Ca2+ elevation by FLIPR assay
Type: cell-based
Reported Kb values are given for each entry in this list.

CCN(C(=O)c1ccccc1OCc1ccccc1F)[C@H]1CCC[C@@H](N)C1 ... 0.367 µM
CCN(C(=O)c1ccccc1OCc1ccc(Cl)cc1)[C@H]1CCC[C@@H](N)C1 ... 0.214 µM

Proceeding to the next compound to report its Kb.
Notebook: CCN(C(=O)c1ccccc1OCc1ccccc1)[C@@H]1CCC[C@@H](N)C1 (racemic) , Kb read as 1.4 µM

====

Molecular target: UniProt Q7Z2W7
Assay: Inhibition of human TRPM8 (unknown origin) expressed in HEK293 cells assessed as inhibition of WS12-induced Ca2+ elevation by FLIPR assay
Assay type: cell-based
Mark rule not met for Kb values under 2000 nM, and rule met for everything at or above.

Solved cases below.
NC1CCN(C(=O)c2ccccc2OCc2ccccc2)C1 (stereo not given) ... rule met
N[C@H]1CCC[C@@H](N(C(=O)c2ccccc2OCc2ccccc2)C2CC2)C1 (racemic) ... rule met
CCN(C(=O)c1ccccc1OCc1ccccc1F)[C@@H]1CCC[C@H](N)C1 ... rule not met
O=C(c1ccccc1OCc1ccccc1)N1C[C@H]2CNC[C@H]2C1 ... rule met
CCN(C(=O)c1ccccc1-c1ccccc1)[C@@H]1CCC[C@H](N)C1 (racemic) ... rule met

q: Say whether CCN(C(=O)c1ccccc1OCC(C)C)[C@@H]1CCC[C@H](N)C1 (racemic) shows Kb of 2000 nM or more.
a: rule met

q: Say whether CCN(C(=O)c1ccccc1OCc1ccccc1C)[C@@H]1CCC[C@H](N)C1 shows Kb of 2000 nM or more.
a: rule not met

q: Say whether CCN(C(=O)c1ccccc1OCc1ccccc1)[C@@H]1CC[C@H](N)C1 (racemic) shows Kb of 2000 nM or more.
a: rule met

q: Say whether CC(C)N(C(=O)c1ccccc1OCc1ccccc1)[C@@H]1CCC[C@H](N)C1 (racemic) shows Kb of 2000 nM or more.
a: rule met

q: Say whether CCN(C(=O)c1ccccc1OCc1ccccc1)[C@@H]1CCC[C@H](N)C1 shows Kb of 2000 nM or more.
a: rule not met

====

Reported logD values are given for each entry in this list.
Assay: Lipophilicity, log D of the compound at pH 7.4
Format: physicochemical
Conditions: buffer
Lab note: record just the number, no unit beside it.

CCN(C(=O)c1ccccc1OCc1ccccc1F)[C@@H]1CCC[C@H](N)C1 ... 0.7
NCCN(Cc1cccs1)C(=O)c1ccccc1OCc1ccccc1 ... 1.6
CCN(C(=O)c1ccccc1OCc1ccccc1)[C@@H]1CCC[C@H](N)C1 ... 0.6

Proceeding to the next molecule to report its logD.
Notebook: CCN(C(=O)c1ccccc1OCc1ccc(Cl)cc1)[C@@H]1CCC[C@H](N)C1 , logD read as 1.3

====

Target: UniProt:Q7Z2W7
Experiment: Inhibition of human TRPM8 (unknown origin) expressed in HEK293 cells assessed as inhibition of WS12-induced Ca2+ elevation by FLIPR assay
Format: cell-based
measurement.type: Kb (nM)
State the answer as a number, implicitly in nM.

Example compounds with recorded Kb:
N[C@H]1CCC[C@@H](N(C(=O)c2ccccc2OCc2ccccc2)C2CCC2)C1 (racemic) ... 794
CCN(C(=O)c1ccccc1OCc1ccccc1C)[C@H]1CCC[C@@H](N)C1 ... 246

Proceeding to the next compound to report its Kb.
Notebook: COc1cc(CN(CCN)C(=O)O[C@@H](C)c2ccccc2)ccc1OCc1ccccc1 , Kb read as 7.8

====

Target: UniProt:Q7Z2W7
Test: Inhibition of human TRPM8 (unknown origin) expressed in HEK293 cells assessed as inhibition of WS12-induced Ca2+ elevation by FLIPR assay
Reported log10 of IC50 values are given for each entry in this list.
Response schema: value (number) is log10 of IC50 in units of nM.

Example compounds with recorded log10 of IC50:
CCN(C(=O)c1ccccc1OCc1ccccc1C)[C@@H]1CCC[C@H](N)C1 ... 1.18
CCN(C(=O)c1ccccc1OCc1ccc(C#N)cc1)C1CCCC(N)C1 (racemic) ... 3.83
CCN(C(=O)c1ccccc1OCc1cccc(C#N)c1)C1CCCC(N)C1 (racemic) ... 2.69

Notebook: N[C@H]1CCC[C@@H](N(C(=O)c2ccccc2OCc2ccccc2)C2CCC2)C1 (racemic) , log10 of IC50 read as 3.13

Notebook: N[C@H]1CCC[C@@H](N(C(=O)c2ccccc2OCc2ccccc2)C2CC2)C1 (racemic) , log10 of IC50 read as 3.30

Notebook: CCN(C(=O)c1ccccc1OCc1cccc(Cl)c1)C1CCCC(N)C1 (racemic) , log10 of IC50 read as 1.99

Notebook: CC(C)N(C(=O)c1ccccc1OCc1ccccc1)[C@@H]1CCC[C@H](N)C1 (racemic) , log10 of IC50 read as 3.94

Notebook: CCN(C(=O)c1ccccc1OCc1ccccc1Cl)[C@H]1CCC[C@@H](N)C1 , log10 of IC50 read as 1.93

Notebook: NCCN(Cc1cccs1)C(=O)c1ccccc1OCc1ccccc1 , log10 of IC50 read as 3.09

Notebook: CCCCN(C(=O)c1ccccc1OCc1ccccc1)[C@@H]1CCC[C@H](N)C1 (racemic) , log10 of IC50 read as 3.15

Notebook: CCN(C(=O)c1ccccc1OCc1ccccc1F)[C@H]1CCC[C@@H](N)C1 , log10 of IC50 read as 2.64

Notebook: CCN(C(=O)c1ccccc1OCc1ccccc1Cl)[C@@H]1CCC[C@H](N)C1 , log10 of IC50 read as 1.48

Notebook: CCN(C(=O)c1ccccc1OCc1ccccc1F)[C@@H]1CCC[C@H](N)C1 , log10 of IC50 read as 1.32
